Assay: Oral bioavailability in CD1 mouse
Type: ADME, organism-based
Conditions: in vivo
Measurement Name: bioavailability (%)
Your answer is read as %, so omit the unit and give the number.

Problem: Tell me measured bioavailability for `Cc1ccc2c(Nc3ccc(Cl)cc3)nccc2c1Nc1ncccc1-c1ncnc2[nH]cnc12.Cl.Cl.Cl` please.
Solution: 79

* * *

Assay: Oral bioavailability in Sprague-Dawley rat at 5 mg/kg
Format: ADME, organism-based
Details: in vivo
Measurement Name: bioavailability (%)
Express the result in % but write the number alone.

// worked examples, bioavailability included
Cc1ccc2c(Nc3ccc(Cl)cc3)nccc2c1Nc1ncccc1-c1ccncn1: 83
CNc1cc(-c2cccnc2Nc2c(C)ccc3c(Nc4ccc(Cl)cc4)nccc23)ncn1: 100
CNc1ncc2cc(-c3c(C)ccc4c(Nc5ccc6c(c5)NC(=O)C6(C)C)nccc34)ccc2n1: 55

Problem: Give the reported value of bioavailability for this record: `C#Cc1cccc(Nc2nccc3c(Nc4ncccc4-c4cc(NC)ncn4)c(C)ccc23)c1`
Solution: 76

Problem: For `Cc1ccc2c(Nc3cccc(C(F)(F)F)c3)nccc2c1Nc1ncccc1-c1ccncn1` , write its bioavailability.
Solution: 22

Problem: State, in one line, measured bioavailability of `CNc1cc(-c2cccnc2Nc2c(C)ccc3c(Nc4ccc(C#N)cc4)nccc23)ncn1`
Solution: 100

Problem: State, in one line, measured bioavailability of `Cc1ccc(C(=O)Nc2cccc(C(F)(F)F)c2)cc1Nc1ncccc1-c1ccncn1`
Solution: 16

Problem: Give the reported bioavailability for this compound. `Cc1ccc2c(Nc3ccc(Cl)cc3)nccc2c1Nc1ncccc1-c1ncnc2[nH]cnc12.Cl.Cl.Cl`
Solution: 80

Problem: Name the recorded bioavailability of the compound listed here: `CNc1ncc2cc(-c3c(C)ccc4c(Nc5cc(C(C)(C)C)nn5C)nccc34)ccc2n1`
Solution: 24

Problem: Look up and state reported bioavailability for `CNc1cc(-c2cccnc2Nc2c(C)ccc3c(Nc4ccc5sc(C)nc5c4)nccc23)ncn1`
Solution: 100
